tgt: T1, biotinylated hBLyS-ECD (human, UniProt Q9Y275 134-285, biotinylated with Biotin-X-X-NHS (molar ratio 7:1); sites not stated)
T1 construct: also called biotinylated immunogen; biotinylated hBLvS-ECD
experiment-description: ELISA on captured biotinylated hBLyS-ECD; antibody 0.534 nM
property: OD450 nm

// recorded OD450 nm for c8E7D9C7F5 (antibody, V domains shown, also called chimeric antibody c8E7D9C7F5) VH: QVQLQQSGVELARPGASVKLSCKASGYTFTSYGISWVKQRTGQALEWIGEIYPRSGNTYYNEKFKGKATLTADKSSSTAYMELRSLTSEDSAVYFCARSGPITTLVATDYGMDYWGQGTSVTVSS VL: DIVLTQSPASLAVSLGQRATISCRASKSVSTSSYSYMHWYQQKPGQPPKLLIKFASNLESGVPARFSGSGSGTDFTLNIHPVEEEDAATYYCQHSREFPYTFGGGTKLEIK : 1.97 OD450 nm

Notebook: c97A3C2H4 (antibody, V domains shown, also called chimeric antibody c97A3C2H4) VH: EVKLVESGGGLVQPGGSLKLSCAASGFTFSTYTMSWVRQTPEKRLEWVAYISYGGGSTSYPDTVKGRFTISRDNAKNTLYLQMSSLKSEDTAIYYCTRHVTVVENSMDYWGQGTSVTVSS VL: DILLTQSPDILSVSPGERVSFSCRASQSIGTSIHWYQQRTNGSPRLLIKYVSESFSGTPSRFSGSGSGTAFTLTINSVESEDIADYYCQQTHSWPWTFGGGTKLEIK , OD450 nm read as 1.91 OD450 nm

# OD450 nm of h8E7D9C7F5-1 (antibody, V domains shown, Humanized antibody; also called humanized BLyS antibody h8E7D9C7F5 variant 1 (VH.1 / Vk.1)) VH: EVQLVQSGAEVKKPGASVKVSCKASGYTFTSYGISWVRQAPGQGLEWMGEIYPRSGNTYYNEKFKGRVTMTTDTSTSTAYMELRSLRSDDTAVYYCARSGPITTLVATDYGMDYWGQGTTVTVSS VL: DIVMTQSPDSLAVSLGERATINCRASKSVSTSSYSYMHWYQQKPGQPPKLLIKFASNLESGVPDRFSGSGSGTDFTLTISSLQAEDVAVYYCQHSREFPYTFGGGTKVEIK = 1.88 OD450 nm

# OD450 nm (binder: h97A3C2H4-9 (antibody, V domains shown, Humanized antibody; VH3-7/JH6 CDR-grafted with A93T, G44R; also called humanized BLyS antibody h97A3C2H4 variant 9 (VH.1b / Vk.1d)) VH: EVQLVESGGGLVQPGGSLRLSCAASGFTFSTYTMSWVRQAPGKRLEWVAYISYGGGSTSYPDTVKGRFTISRDNAKNSLYLQMNSLRAEDTAVYYCTRHVTVVENSMDYWGQGTTVTVSS VL: DILLTQSPDFQSVTPKEKVTITCRASQSIGTSIHWYQQKTDQSPKLLIKYVSESFSGTPSRFSGSGSGTDFTLTINSLEAEDAATYYCQQTHSWPWTFGGGTKVEIK ) is 1.88 OD450 nm
